biological target: human apelin receptor (Homo sapiens); construct: expressed in transfected cells; assay: Determination of agonism on the human apelin receptor by a calcium fluorescence assay (FLIPR); assay type: cell-based; details: HEK293 cells stably transfected with human apelin receptor and Giaq protein, Fluo-4 calcium fluorescence, read-out: EC50 (APJ agonism)
Sequence (P35414 whole entry): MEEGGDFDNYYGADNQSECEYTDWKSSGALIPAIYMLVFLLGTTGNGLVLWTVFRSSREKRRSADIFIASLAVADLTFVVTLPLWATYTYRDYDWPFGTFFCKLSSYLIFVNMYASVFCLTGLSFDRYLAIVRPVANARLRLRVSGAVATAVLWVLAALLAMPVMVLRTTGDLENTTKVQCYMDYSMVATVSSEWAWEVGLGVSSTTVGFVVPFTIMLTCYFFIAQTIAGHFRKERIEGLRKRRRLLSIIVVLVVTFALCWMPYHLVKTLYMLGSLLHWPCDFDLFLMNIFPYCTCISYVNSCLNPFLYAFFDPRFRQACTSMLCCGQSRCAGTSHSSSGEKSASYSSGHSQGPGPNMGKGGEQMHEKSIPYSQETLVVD
REPORTED METRIC: EC50 (nM)
One number for each entry, in nM.

Solved entries (count: 10):
MOLECULE | RECORDED RESULT
CC1CCC(NC(=O)c2ccc3c(c2)nc(Cc2cccs2)n3[C@@H]2CCCC[C@H]2C)(C(=O)O)CC1 (stereo partly drawn) [Example 35] | 291
CCC(CC)n1c(Cc2cccs2)nc2cc(C(=O)N[C@@H](CC(C)C)C(=O)Nc3ccc(F)cc3)ccc21 [Example 228] | 8500
CCCN(CCC)C1CCN(C(=O)[C@H](CC(C)C)NC(=O)c2ccc3c(c2)nc(Cc2cccs2)n3C(CC)CC)CC1 [Example 284] | 252
CCC(CC)n1c(Cc2cccs2)nc2cc(C(=O)N[C@H](CC(=O)O)[C@@H](C)CC)ccc21 [Example 54] | 115
CCC(CC)n1c(Cc2cccs2)nc2cc(C(=O)N[C@@H](CC(C)C)C(=O)N3CCN(C4CCCC4)CC3)ccc21 [Example 321] | 1520
CCC(CC)n1c(Cc2cccs2)nc2cc(C(=O)N[C@@H](CC(C)C)C(=O)Nc3ccc(CN4CCC(C)CC4)cc3)ccc21 [Example 283] | 4500
C[C@@H]1CCCC[C@H]1n1c(Cc2cccs2)nc2cc(C(=O)NC(CC3CCCC3)C(=O)O)ccc21 (single isomer, unassigned) [Example 442] | 134
CC(C)C[C@H](NC(=O)c1ccc2c(c1)nc(Cc1ccoc1)n2C1CCCCC1C)C(=O)O (stereo partly drawn) [Example 131] | 185
CCC(CC)n1c(Cc2cccs2)nc2cc(C(=O)N[C@@H](CC(C)C)C(=O)NCC3CCOCC3)ccc21 [Example 369] | 2210
CCC(CC)n1c(Cc2cccs2)nc2cc(C(=O)N[C@@H](CC(C)C)C(=O)N3CCCN(Cc4ccccc4)CC3)ccc21 [Example 323] | 6740

For every listed record, write down its EC50.
1. CCC(CC)n1c(Cc2ccc(Cl)s2)nc2cc(C(=O)N[C@@H](CC(C)C)C(=O)O)ccc21 [Example 82]
2. CCC(CC)n1c(Cc2cccs2)nc2cc(C(=O)NC(CC(=O)O)C3CCCCC3)ccc21 (stereo not drawn) [Example 44]
3. CCC(CC)n1c(Cc2ccco2)nc2cc(C(=O)N[C@@H](CC3CCCCC3)C(=O)O)ccc21 [Example 8]
4. CCC(CC)n1c(Cc2cccs2)nc2cc(C(=O)N[C@@H](CC(C)C)C(=O)N3CCN(C)CC3)ccc21 [Example 225]
5. CCC(CC)n1c(Cc2cccs2)nc2cc(C(=O)NC3(C(=O)O)CCCCC3)ccc21 [Example 24]

Found:
1. 23300
2. 258
3. 107
4. 775
5. 219
